Reference source for all entries: patent US8569267B2

# experimental system: human cloned 5-HT2A receptor, expressed in L929 cells (Homo sapiens, UniProt P28223)
# Construct: expressed in transfected cells; host or cells: L929 cells
# Sequence (P28223 whole entry): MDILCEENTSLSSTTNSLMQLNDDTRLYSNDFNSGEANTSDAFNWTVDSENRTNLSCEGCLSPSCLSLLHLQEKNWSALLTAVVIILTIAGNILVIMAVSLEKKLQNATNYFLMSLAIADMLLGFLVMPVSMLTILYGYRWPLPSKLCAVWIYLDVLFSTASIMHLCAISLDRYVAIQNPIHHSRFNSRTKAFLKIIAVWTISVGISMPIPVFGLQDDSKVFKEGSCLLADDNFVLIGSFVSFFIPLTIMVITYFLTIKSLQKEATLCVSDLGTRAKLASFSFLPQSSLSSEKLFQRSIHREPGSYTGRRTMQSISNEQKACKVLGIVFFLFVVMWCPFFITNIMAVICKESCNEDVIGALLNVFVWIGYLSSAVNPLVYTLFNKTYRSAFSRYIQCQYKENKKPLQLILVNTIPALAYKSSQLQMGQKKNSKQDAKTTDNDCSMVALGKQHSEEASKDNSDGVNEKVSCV
# test summary: In vitro binding affinity for 5-HT2A receptor ([125I]R91150 radioligand binding)
assay metric: pIC50
Here pIC50 is given on a logarithmic scale as minus log10 of the concentration in mol/L.

Documented pIC50 of O=C(Cc1ccccc1)OC1CCN(CC2CC3c4ccccc4Cc4ccc(F)cc4C3O2)C1 (mixture of isomers) [Compound 18] : 8.22

* * *

# experimental system: human cloned 5-HT2A receptor, expressed in L929 cells (Homo sapiens, UniProt P28223)
# Construct: expressed in transfected cells; host or cells: L929 cells
# test summary: In vitro binding affinity for 5-HT2A receptor ([125I]R91150 radioligand binding)
# condition: human cloned 5-HT2A receptor in L929 cells, [125I]R91150; read-out: 5-HT2A pIC50 (converted)
IC50 by entry:
Reply numerically in nM, unit not repeated.

A selection of reference data follows.
| molecule | experimental system | IC50 / nM |
| --- | --- | --- |
| COc1ccc(CNC(=O)N2CCN(CC3CC4c5ccccc5Cc5ccc(F)cc5C4O3)CC2)c(OC)c1 (centres unmarked) [Compound 96] | human cloned 5-HT2A receptor, expressed in L929 cells (Homo sapiens, UniProt P28223) | 16.2 |
| Fc1ccc2c(c1)[C@@H]1O[C@@H](CN3CCC4(CC3)OCCO4)C[C@@H]1c1ccccc1C2 [Compound 278] | human cloned 5-HT2A receptor, expressed in L929 cells (Homo sapiens, UniProt P28223) | 1.62 |
| Fc1ccc(OCCN2CCN(CC3CC4c5ccccc5Cc5ccc(F)cc5C4O3)CC2)cc1 (centres unmarked) [Compound 54] | human cloned 5-HT2A receptor, expressed in L929 cells (Homo sapiens, UniProt P28223) | 7.59 |
| Fc1ccc2c(c1)C1OC(CN3CCN(Cc4ccco4)CC3)CC1c1ccccc1C2 (centres unmarked) [Compound 60] | human cloned 5-HT2A receptor, expressed in L929 cells (Homo sapiens, UniProt P28223) | 7.76 |

The value of IC50 recorded for CCNC(=O)N1CCN(C[C@H]2C[C@@H]3c4ccccc4Cc4ccc(F)cc4[C@@H]3O2)CC1 [Compound 86] when tested on human cloned 5-HT2A receptor, expressed in L929 cells (Homo sapiens, UniProt P28223) reads 0.832
